Recorded log10(half-life) for the following compounds
assay: Pharmacokinetics: concentration of prodrug (or propofol) in rat plasma after intravenous infusion, LC/MS/MS; details: male, Sprague-Dawley, rat, plasma, iv, 0.168 mmol/Kg
MEASUREMENT_NAME: log10(half-life) (log10 of the value in min)

1. CC(C)c1cccc(C(C)C)c1OC(=O)OCCO[C@@H]1O[C@H](CO)C(O[C@H]2O[C@H](CO)[C@@H](O)[C@H](O)[C@H]2O)[C@H](O)[C@H]1O (some centres unmarked) [Compound 24] = 1.73
2. CC(C)c1cccc(C(C)C)c1OC(=O)OCCCO[C@@H]1O[C@H](CO)C(O[C@H]2O[C@H](CO)[C@@H](O)[C@H](O)[C@H]2O)[C@H](O)[C@H]1O (some centres unmarked) [Compound 25] = 1.18
3. CC(C)c1cccc(C(C)C)c1O [Propofol, 2,6-diisopropylphenol, reference compound] = 2.58
4. CC(C)c1cccc(C(C)C)c1OC(=O)NCCO[C@@H]1O[C@H](CO)[C@@H](O)[C@H](O)[C@H]1O [Compound 17] = 1.42
5. CC(C)c1cccc(C(C)C)c1OC(=O)OCCCO[C@@H]1O[C@H](CO)[C@@H](O)[C@H](O)[C@H]1O [Compound 12] = 0.56

---

assay: Pharmacokinetics: concentration of propofol in rat plasma after intravenous infusion of each pro-drug, LC/MS/MS; settings: releasing the propofol in a matter of minutes after infusion, rat
MEASUREMENT_NAME: pro-drug efficiency, release of propofol

1. CC(C)c1cccc(C(C)C)c1OC(=O)OCCO[C@@H]1O[C@H](CO)[C@@H](O)[C@H](O)[C@H]1O = very efficient pro-drugs
2. CC(C)c1cccc(C(C)C)c1OC(=O)OCCCO[C@@H]1O[C@H](CO)[C@@H](O)[C@H](O)[C@H]1O = very efficient pro-drugs
3. CC(C)c1cccc(C(C)C)c1OC(=O)OCCO[C@H]1O[C@H](CO)[C@@H](O)[C@H](O)[C@H]1O = very efficient pro-drugs
4. CC(C)c1cccc(C(C)C)c1OC(=O)OCCCO[C@H]1O[C@H](CO)[C@@H](O)[C@H](O)[C@H]1O = very efficient pro-drugs
5. CC(C)c1cccc(C(C)C)c1OC(=O)OCCO[C@@H]1O[C@H](CO)C(O[C@H]2O[C@H](CO)[C@@H](O)[C@H](O)[C@H]2O)[C@H](O)[C@H]1O (stereo partly drawn) = very efficient pro-drugs
6. CC(C)c1cccc(C(C)C)c1OC(=O)OCCCO[C@@H]1O[C@H](CO)C(O[C@H]2O[C@H](CO)[C@@H](O)[C@H](O)[C@H]2O)[C@H](O)[C@H]1O (stereo partly drawn) = very efficient pro-drugs

---

Some molecules, each annotated with its measured log10 solubility.
test: Solubility determination of propofol analogs in D2O by 1H NMR with DSS internal standard; details: D2O, water, thermodynamic from solid
MEASUREMENT_NAME: log10 solubility (log10 of the value in mM)

1. CC(C)c1cccc(C(C)C)c1OC(=O)NCCO[C@@H]1O[C@H](CO)[C@@H](O)[C@H](O)[C@H]1O = 0.20
2. CC(C)c1cccc(C(C)C)c1O [Propofol, 2,6-diisopropylphenol, reference compound] = 0.04
3. CC(C)c1cccc(C(C)C)c1OC(=O)OCCO[C@@H]1O[C@H](CO)[C@@H](O)[C@H](O)[C@H]1O = 0.97
4. CC(C)c1cccc(C(C)C)c1OC(=O)OCCO[C@H]1O[C@H](CO)[C@@H](O)[C@H](O)[C@H]1O = 1.12
5. CC(C)c1cccc(C(C)C)c1OC(=O)OCCCO[C@H]1O[C@H](CO)[C@@H](O)[C@H](O)[C@H]1O = 0.76
6. CC(C)c1cccc(C(C)C)c1OC(=O)OCCCO[C@@H]1O[C@H](CO)[C@@H](O)[C@H](O)[C@H]1O = 0.74

---

test: Pharmacokinetics: concentration of prodrug (or propofol) in rat plasma after intravenous infusion, LC/MS/MS; conditions: male, Sprague-Dawley, rat, plasma, iv, 0.168 mmol/Kg
AUC(0-t) values by entry
MEASUREMENT_NAME: AUC(0-t) (µM·h)

1. CC(C)c1cccc(C(C)C)c1O [Propofol, 2,6-diisopropylphenol, reference compound] = 10.6
2. CC(C)c1cccc(C(C)C)c1OC(=O)OCCCO[C@@H]1O[C@H](CO)[C@@H](O)[C@H](O)[C@H]1O = 0.000773
3. CC(C)c1cccc(C(C)C)c1OC(=O)OCCCO[C@H]1O[C@H](CO)[C@@H](O)[C@H](O)[C@H]1O = 0.00304
4. CC(C)c1cccc(C(C)C)c1OC(=O)OCCCO[C@@H]1O[C@H](CO)C(O[C@H]2O[C@H](CO)[C@@H](O)[C@H](O)[C@H]2O)[C@H](O)[C@H]1O (stereo partly shown) = 8.57
5. CC(C)c1cccc(C(C)C)c1OC(=O)OCCO[C@@H]1O[C@H](CO)C(O[C@H]2O[C@H](CO)[C@@H](O)[C@H](O)[C@H]2O)[C@H](O)[C@H]1O (stereo partly shown) = 0.786
6. CC(C)c1cccc(C(C)C)c1OC(=O)OCCO[C@H]1O[C@H](CO)[C@@H](O)[C@H](O)[C@H]1O = 0.000657
7. CC(C)c1cccc(C(C)C)c1OC(=O)NCCO[C@@H]1O[C@H](CO)[C@@H](O)[C@H](O)[C@H]1O = 61.6

---

Reported MRT inf values are given for each entry in this list.
Assay: Pharmacokinetics: concentration of prodrug (or propofol) in rat plasma after intravenous infusion, LC/MS/MS
Details: male, Sprague-Dawley, rat, plasma, iv, 0.168 mmol/Kg
Description: Blood samples were to be taken pre-dose, during dose and post dose at designated intervals, with the blood quickly processed and stored at −70° C. until analysis. Formulations were prepared on the morning of the dosing day and each was passed through a 0.22 μm filter prior to being administered to animals. […] For each, a minimum of 6 standard point curve runs in duplicates, and minimum of 5 standards were back calculated to within ±20% of their nominal concentrations. […]
MEASUREMENT_NAME: MRT inf (min)

1. CC(C)c1cccc(C(C)C)c1OC(=O)OCCCO[C@@H]1O[C@H](CO)C(O[C@H]2O[C@H](CO)[C@@H](O)[C@H](O)[C@H]2O)[C@H](O)[C@H]1O (some centres unmarked) [Compound 25] = 4.62
2. CC(C)c1cccc(C(C)C)c1OC(=O)OCCCO[C@@H]1O[C@H](CO)[C@@H](O)[C@H](O)[C@H]1O [Compound 12] = 6
3. CC(C)c1cccc(C(C)C)c1OC(=O)NCCO[C@@H]1O[C@H](CO)[C@@H](O)[C@H](O)[C@H]1O [Compound 17] = 16.6
4. CC(C)c1cccc(C(C)C)c1OC(=O)OCCO[C@@H]1O[C@H](CO)C(O[C@H]2O[C@H](CO)[C@@H](O)[C@H](O)[C@H]2O)[C@H](O)[C@H]1O (some centres unmarked) [Compound 24] = 12.4
5. CC(C)c1cccc(C(C)C)c1O [Propofol, 2,6-diisopropylphenol, reference compound] = 209

---

experiment: Pharmacokinetics: concentration of prodrug (or propofol) in rat plasma after intravenous infusion, LC/MS/MS; settings: male, Sprague-Dawley, rat, plasma, iv, 0.168 mmol/Kg
MEASUREMENT_NAME: Cmax (µM)

1) CC(C)c1cccc(C(C)C)c1O [Propofol, 2,6-diisopropylphenol, reference compound] = 31.9
2) CC(C)c1cccc(C(C)C)c1OC(=O)OCCO[C@H]1O[C@H](CO)[C@@H](O)[C@H](O)[C@H]1O = 0.00538
3) CC(C)c1cccc(C(C)C)c1OC(=O)OCCCO[C@@H]1O[C@H](CO)[C@@H](O)[C@H](O)[C@H]1O = 0.00678
4) CC(C)c1cccc(C(C)C)c1OC(=O)OCCCO[C@@H]1O[C@H](CO)C(O[C@H]2O[C@H](CO)[C@@H](O)[C@H](O)[C@H]2O)[C@H](O)[C@H]1O (stereo partly shown) = 68.4

---

// AUC(0-inf) lookup, one value per entry
experiment: Pharmacokinetics: concentration of prodrug (or propofol) in rat plasma after intravenous infusion, LC/MS/MS; conditions: male, Sprague-Dawley, rat, plasma, iv, 0.168 mmol/Kg
MEASUREMENT_NAME: AUC(0-inf) (µM·h)

1) CC(C)c1cccc(C(C)C)c1OC(=O)OCCCO[C@@H]1O[C@H](CO)[C@@H](O)[C@H](O)[C@H]1O [Compound 12] = 0.00122
2) CC(C)c1cccc(C(C)C)c1OC(=O)OCCCO[C@@H]1O[C@H](CO)C(O[C@H]2O[C@H](CO)[C@@H](O)[C@H](O)[C@H]2O)[C@H](O)[C@H]1O (some centres unmarked) [Compound 25] = 8.57
3) CC(C)c1cccc(C(C)C)c1OC(=O)NCCO[C@@H]1O[C@H](CO)[C@@H](O)[C@H](O)[C@H]1O [Compound 17] = 71.8
4) CC(C)c1cccc(C(C)C)c1OC(=O)OCCO[C@@H]1O[C@H](CO)C(O[C@H]2O[C@H](CO)[C@@H](O)[C@H](O)[C@H]2O)[C@H](O)[C@H]1O (some centres unmarked) [Compound 24] = 0.791
5) CC(C)c1cccc(C(C)C)c1O [Propofol, 2,6-diisopropylphenol, reference compound] = 12.6
